- measured-target: Retinal dehydrogenase 2 (Homo sapiens)
- test-description: qHTS for Inhibitors of the Aldehyde Dehydrogenase Family (ALDH1A2) Confirmation screens (AID 2061314); also: nearly all actives have a fitted effect of over 65% in size
- experimental-parameters: ALDH1A2 enzyme inhibition qHTS confirmation; series mostly up to 45.9 µM
Inconclusive results are not listed. The source made the active and inactive calls. Calls follow the shape of the dose curve; as a rule, active = well fitted inhibition curve with a large enough effect; inconclusive = small, poorly fitted or top-dose-only effect; inactive = no such curve, though single readings can be large or run the other way.
Response enum: YES for active, NO for inactive

1. COc1ccc(C2Nc3ccccc3C(=O)N2Cc2ccccc2)cc1COc1ccc(C(N)=O)cc1 (centres undefined)
YES
2. O=c1c2ccccc2nc2sc(Nc3ccc(Sc4ccccc4)cc3)nn12
YES
3. COc1cccc(OC2=NS(=O)(=O)c3ccccc32)c1
NO

Q) What did this assay record as the result for CN(C)c1ccc(C2O[C@@H](c3ccccc3)C[C@H](c3ccccc3)O2)cc1 (some centres undefined) ?
A) YES

Q) Same question, CC1(NC(=O)c2ccc(C#Cc3cccc(F)c3)cn2)COC1 this time
A) NO

Q) Same question, CO[C@]1(NC(=O)CSC(F)F)C(=O)N2C(C(=O)O)=C(CSc3nnnn3CCO)CO[C@H]21 this time
A) NO

Q) Same question, CN1CCN(C2=Nc3ccccc3Nc3ccc(O)cc32)CC1 this time
A) NO

Q) Same question, O=c1[nH]c2cccc(N3CCN(Cc4ccc(-c5ccccc5)cc4)CC3)c2o1 this time
A) NO

Q) Same question, COC(=O)C1=COC(OC2OC(CO)C(O)C(O)C2O)C2C(COC(=O)/C=C/c3ccc(O)c(O)c3)C(O)C(O)C12 (centres undefined) this time
A) NO

Q) Same question, COc1cccc(-c2nc(SCc3ccc(C)cc3)n3[nH]c(=O)cc3n2)c1 this time
A) NO
